# System: SW-620 colon
# method: NCI tumour cell line growth inhibition, 48 h
Quick list: TGI per entry.

Lab note: COc1ccc2cc(C(=O)/C=C/c3ccccc3OC)ccc2c1 gave TGI of > 33.2 µM

Next:
Lab note: COc1cc2c(cc1OC)C(=O)/C(=C/c1ccccc1)C2 gave TGI of > 100 µM

Lab note: COc1ccc2c(c1)N(CCC1CCCCN1C)c1ccccc1S2 (centres undefined) gave TGI of 35.5 µM

Lab note: CCN(CC)CCCC(C)Nc1ccnc2cc(Cl)c(SCc3ccccc3)cc12 (centres undefined) gave TGI of 2.92 µM

Lab note: CN(CCNC(=O)c1cc(-c2ccccc2)nc2ccccc12)CCNC(=O)c1cc(-c2ccccc2)nc2ccccc12 gave TGI of 24.9 µM

Lab note: CC1CC(=O)NC2CC1C2(C)C (centres undefined) gave TGI of > 100 µM

Lab note: O=C(CCc1cc(-c2ccco2)n(-c2ccc([N+](=O)[O-])cc2[N+](=O)[O-])n1)Nc1ccccc1 gave TGI of > 100 µM

Lab note: Cc1cc2c(=O)cc(-c3ccc(C(=O)O)cc3)oc2c(C(=O)O)c1C gave TGI of > 100 µM

Lab note: Oc1ccc2c3c1OC1c4[nH]c5c(c4CC4(O)C(C2)N(CC2CC2)CC[C@]314)CC1(O)C2Cc3ccc(O)c4c3[C@@]1(CCN2CC1CC1)C5O4 (some centres undefined) gave TGI of 53.8 µM

Lab note: CCOC(=O)c1c2c(n3cccc(F)c13)C(=O)c1ncccc1C2=O gave TGI of 11.3 µM

###

# Test system: CAKI-1 renal
# method: NCI tumour cell line growth inhibition, 48 h; in the data active = GI50 below about 0.43 µM; inactive = the rest
The reply should name one outcome from true = active, false = inactive

// below: answered molecules
## Input What classification did C[C@H]1[C@H](C)CC[C@]2(C(=O)O)CC[C@]3(C)C(=CC[C@@H]4[C@@]5(C)CC[C@H](OC(=O)/C=C\c6ccc(O)cc6)C(C)(C)[C@@H]5CC[C@]43C)[C@H]12 end up with in this test?
## Output false

## Input What classification did CCN(CC)CCCC(C)Nc1ccnc2cc(Cl)c(SCc3ccccc3)cc12 (centres undefined) end up with in this test?
## Output false

## Input What classification did C#CCOc1c(OC)cc(C(=O)/C(C)=C/c2cccc(N=[N+]=[N-])c2)cc1OC end up with in this test?
## Output true

## Input What classification did COc1ccc(/C=C2\CCCC3=C2N=C2SC=NN2C3c2ccc(OC)c(OC)c2)cc1OC (centres undefined) end up with in this test?
## Output false

## Input What classification did CCOC(=O)c1c2c(n3cccc(F)c13)C(=O)c1ncccc1C2=O end up with in this test?
## Output true

## Input What classification did COc1ccc2c(c1)c(=O)oc1cc(OC/C(=N\O)c3ccc(F)cc3)ccc12 end up with in this test?
## Output false

## Input What classification did O=C(Nc1cccc2ccccc12)c1cc2ccccc2cc1O end up with in this test?
## Output false

## Input What classification did N=c1c2c(=O)n3c(nc2nc2sc4ccc(Cl)cc4n12)-c1ccccc1Sc1ccccc1-3 end up with in this test?
## Output false

In the following, a different molecule is considered.
## Input What classification did O=C(Nc1cccc(-n2cc(-c3ccncc3)c(-c3ccc(O)c(Cl)c3)n2)c1)Nc1ccc(Cl)c(C(F)(F)F)c1 end up with in this test?
## Output false

###

# Tested on: NCI-H460 lung
# method: NCI tumour cell line growth inhibition, 48 h
Quick list: TGI per entry.

Guide cases for TGI, answers given:
Lab note: [O-][n+]1onc2c1-c1nonc1CC2 gave TGI of > 100 µM

Lab note: C(#Cc1ccccc1C#Cc1ccccn1)c1ccc(OCCCCCCOc2ccc(C#Cc3ccccc3C#Cc3ccccn3)cc2)cc1 gave TGI of 6.65 µM

Lab note: Cc1ccc(S(=O)(=O)C2=C3C(=C(c4ccccc4)c4ccccc43)CN(S(=O)(=O)c3ccc(C)cc3)C2)cc1 gave TGI of 15.1 µM

Lab note: COC(=O)[C@]1(C)CCC[C@]2(C)C3CC4OOC3(C=C4C(C)C)CCC21 (stereo partly drawn) gave TGI of 25.7 µM

Lab note: CCCN1CN(C(C(=O)N[C@@H]2C(=O)N3C(C(=O)O)=C(C)CSC23)c2ccccc2)CSC1=S (stereo partly drawn) gave TGI of > 100 µM

Next:
Lab note: O=CNc1ccc2c(c1)Cc1cc([N+](=O)[O-])ccc1-2 gave TGI of > 60.3 µM

Lab note: CC(=O)OCC1OC(OC2CC3C(C)(C)C(=O)CC[C@]3(C)C3CC[C@]45C[C@]4(CCC5[C@@H](C)CC(O)C(O)C(C)(C)O)[C@]23C)C(O)C(O)C1O (stereo partly drawn) gave TGI of 27.1 µM

Lab note: CCOC(=O)c1c2c(n3cccc(F)c13)C(=O)c1ncccc1C2=O gave TGI of 1.12 µM

Lab note: O=C(NO)c1ccc(OCc2ccccc2)cc1 gave TGI of > 100 µM

Lab note: N=C1N=Nc2nc(C3(c4nc5n(c4O)C(=N)N=N5)Cc4ccccc4C3=O)c(O)n21 (stereo not drawn) gave TGI of > 100 µM

Lab note: COc1ccc2cc(C(=O)/C=C/c3ccccc3OC)ccc2c1 gave TGI of > 51.7 µM

Lab note: Cn1c2ccccc2c(=S)c2cc(NC(=O)CCCCC(=O)Nc3ccc4c(c3)c(=S)c3ccccc3n4C)ccc21 gave TGI of > 100 µM

Lab note: O=C1/C(=c2\c3ccccc3n3c(=O)c4ccccc4nc23)Nc2ccccc21 gave TGI of > 100 µM

###

# System: CCRF-CEM leukemia
# method: NCI tumour cell line growth inhibition, 48 h
attribute measured: TGI

Lab note: N=C(N)c1ccc(-c2ccc(-c3ccco3)o2)cc1F gave TGI of 8.16 µM

Lab note: Cn1c(=O)c2c(nc3sc4ncccc4c(=O)n32)n(C)c1=O gave TGI of > 100 µM

Next:
Lab note: CC(=O)OCC1OC(OC2CC3C(C)(C)C(=O)CC[C@]3(C)C3CC[C@]45C[C@]4(CCC5[C@@H](C)CC(O)C(O)C(C)(C)O)[C@]23C)C(O)C(O)C1O (some centres undefined) gave TGI of 16.7 µM

Lab note: COc1ccc2c(c1)N(CCO)C1=C(C(=O)OC1)C2c1cccc(Br)c1 (centres undefined) gave TGI of > 100 µM

###

Quick list: TGI per entry.
# Test system: UACC-257 melanoma
# method: NCI tumour cell line growth inhibition, 48 h
Just the number please, in µM, no unit attached.

Lab note: COC(=O)[C@]1(C)CCC[C@]2(C)C3CC4OOC3(C=C4C(C)C)CCC21 (stereo not given in full) gave TGI of 32

Lab note: CC1=C/C(=C(/c2ccc(O)c(C)c2)c2ccccc2C(=O)O)C=CC1=O gave TGI of 35.8

Lab note: O=C(Nc1cc(Cl)cc(Cl)c1)c1ccc(NC2=C(Cl)C(=O)N(Cc3ccccc3)C2=O)cc1 gave TGI of 27.1

Lab note: Cc1ccc2cccc(OC(=O)c3cc4c(cc3Cl)Sc3nccn3S4(=O)=O)c2n1 gave TGI of 25.4

Lab note: Cn1cc(C2=C(c3cccc(NCC(O)CO)c3)C(=O)NC2=O)c2cc(Cl)ccc21 (stereo not given) gave TGI of 15.4

As a next step, examine the molecule that follows.
Lab note: O=C(/C=C/c1ccc2c(c1)OCO2)c1ccccc(=O)c1O gave TGI of 53.1

###

# Tested on: IGROV1 ovarian
# method: NCI tumour cell line growth inhibition, 48 h
Quick list: TGI per entry.

Guide cases for TGI, answers given:
Lab note: COc1ccc(N=C2C(=Nc3ccc(OC)cc3)N(c3ccccc3[N+](=O)[O-])C(=S)N2c2ccc(OC)cc2)cc1 gave TGI of > 100 µM

Lab note: CO/N=C/c1c(-c2ccc(Cl)cc2)c(/C=N/OC)n2c1sc1ccccc12 gave TGI of > 100 µM

Lab note: Nc1nc(Cl)cc(NCC2(CO)CC(Cc3ccccc3)C2)n1 (stereo not given) gave TGI of > 100 µM

Next:
Lab note: CCC(C)(C)c1ccc(Oc2cccc(C(=O)O)c2)cc1 gave TGI of > 100 µM

Lab note: COc1ccc2cc(C(=O)/C=C/c3ccccc3OC)ccc2c1 gave TGI of 4.06 µM

###

# Tested on: RXF 393 renal
# method: NCI tumour cell line growth inhibition, 48 h
attribute measured: TGI (µM)
Just the number please, in µM, no unit attached.

Guide cases for TGI, answers given:
Lab note: Cc1ccc2cccc(OC(=O)c3cc4c(cc3Cl)Sc3nccn3S4(=O)=O)c2n1 gave TGI of 20.5

Lab note: Cc1cc2nc3c(C#N)c(-c4ccccc4)cc(Nc4cccc(C(F)(F)F)c4)n3c2cc1C gave TGI of 22.9

Lab note: COc1cc([C@@H]2c3cc4c(cc3[C@@H](NC(=O)c3ccc([N+](=O)[O-])cc3)C3COC(=O)[C@@H]32)OCO4)cc(OC)c1O (some centres undefined) gave TGI of 34.8

Lab note: CC1=C(C(=O)Nc2ccc(Cl)c(Cl)c2)C(c2cccc(O)c2)NC(=S)N1 (centres undefined) gave TGI of 29.3

Lab note: CCCCN1C(=O)C[C@H]2[C@@H]3CCc4cc(OCCN5CCCC5)ccc4[C@H]3CC[C@]2(C)C1=O gave TGI of 4.59

As a next step, examine the molecule that follows.
Lab note: Cc1ccc(S(=O)(=O)C2=C3C(=C(c4ccccc4)c4ccccc43)CN(S(=O)(=O)c3ccc(C)cc3)C2)cc1 gave TGI of 16
